- ASSAY_COMMENT: qHTS assay for small molecule agonists of the antioxidant response element (ARE) signaling pathway measured by Nrf2-dependant transcriptional activity - cell viability counter screen (AID 720653); note: % is set by controls: 0 for no effect and ±100 for the full control effect
- ASSAY_CONTEXT: ARE-bla HepG2 viability, CellTiter-Glo ATP luminescence, 16 h; active compounds read low
Inconclusive results are not listed.
MEASURED_METRIC: max response (%)

COMPOUND	MEASURED_METRIC	NUMERIC_RESULT
C=CC1CO1 (configuration not stated)	max response	-12.7
C[Si](C)(C)Cl	max response	-8.15
O=C(OCC1CO1)C1CCCCC1C(=O)OCC1CO1 (configuration not stated)	max response	4.68
CC(=O)Nc1cccc(C)c1	max response	-7.75
CC/C=C/C/C=C/C/C=C/CCCCCCCC(=O)OCC	max response	-18.4
CC(C)OCC1CO1 (configuration not stated)	max response	0.394
c1cc2c3c(c1)ccc1cccc(c13)C2	max response	-4.5
C=C1CC[C@H](O)C/C1=C/C=C1\CCC[C@]2(C)[C@@H]([C@H](C)CCCC(C)C)CC[C@@H]12	max response	-9.05
Cc1ccc2ccc3cccc4ccc1c2c34	max response	2.48
Cc1cc2nc(N)sc2cc1C	max response	-19.7
Cc1cccnc1	max response	-3.56
CCCCC(CC)COCCCN (configuration not stated)	max response	-14.9
CC1=C(/C=C/C(C)=C/C=C/C(C)=C/C=O)C(C)(C)CCC1	max response	2.27
Cc1ccc(N)cc1[N+](=O)[O-]	max response	-10.7
C/C(Cl)=C/CCl	max response	5.48
C=CC(C)(O)CCCC(C)CCCC(C)CCCC(C)C (configuration not stated)	max response	0.618
CCCCCCCCC1CO1 (configuration not stated)	max response	14.9
CCCCC(CC)COP(=O)(OCC(CC)CCCC)OCC(CC)CCCC (configuration not stated)	max response	-10.8
CCC(Cl)CC(Cl)C(Cl)C(Cl)C(Cl)C(C)Cl (configuration not stated)	max response	-9.68
CCc1ccc(C(c2ccc(CC)cc2)C(Cl)Cl)cc1	max response	-5.77
Oc1ccc(O)c2c(O)cccc12	max response	-23
Brc1cc(Br)c(Oc2cc(Br)c(Br)cc2Br)cc1Br	max response	-7.08
Cc1c(N)cccc1Cl	max response	-6.28
Cc1ccc(O)c(N)c1	max response	-26.2
CCOC(=O)C1OC1c1ccccc1 (configuration not stated)	max response	8.37
O=CC(=O)c1ccccc1	max response	-2.84
O=C1OC(=O)c2ccccc21	max response	-7.68
c1ccncc1	max response	-7.78
C=CC(=O)CC	max response	-0.839
Oc1ccc2c(c1)OCO2	max response	5
O=[N+]([O-])c1ccccc1Nc1ccccc1	max response	-2.68
Nc1ccc(N)c(Cl)c1	max response	24
O=C=Nc1ccc(Cl)c(Cl)c1	max response	-6.45
CCCCCCc1ccc(-c2ccc(C#N)cc2)cc1	max response	-11.9
Cc1cc(=O)oc2cc(O)cc(O)c12	max response	0.736
c1ccc2ncccc2c1	max response	0.928
C1CCCNCC1	max response	-5.98
NC(=O)c1ccc([N+](=O)[O-])cc1	max response	5.8
CC(C)S	max response	14.7
CCCCNCC	max response	3.95
N[C@@H](Cc1ccccc1)C(=O)O	max response	-5.99
O=C(O)/C=C/c1ccc(/C=C/C(=O)O)cc1	max response	-1.74
O=[N+]([O-])c1cccc(I)c1	max response	2.94
CC(C)COC(=O)COc1cc(Cl)c(Cl)cc1Cl	max response	7.92
Cc1ccc(C(=O)O)cc1[N+](=O)[O-]	max response	-1.34
c1ccc(COCc2ccccc2)cc1	max response	3.34
CCCCCCCCOc1ccc(C(=O)O)cc1	max response	-6.08
